Format: physicochemical
Where no end group is shown, it is not given here.
measurement.type: pKa, species H5L

> print(dat)
                                  substance  observed.value
1  H-VFQFLGKIIHHVGNFVHGFSHVF-OH [Clavanin A]            6.92
2  H-LFKLLGKIIHHVGNFVHGFSHVF-OH [Clavanin E]            7.30
3      VFQFLGRIIHHVGNFVHGFSHVF [Clavanin B]            7.09
4  H-AFKLLGRIIHHVGNFVYGFSHVF-OH [Clavanin D]            7.24

====

Entries and their pKa, species HL
Type: physicochemical
Where no end group is shown, it is not given here.
measurement.type: pKa, species HL

> print(dat)
                                  substance  measurement.type  observed.value
1  H-AFKLLGRIIHHVGNFVYGFSHVF-OH [Clavanin D]   pKa, species HL           11.13
2  H-VFQFLGKIIHHVGNFVHGFSHVF-OH [Clavanin A]   pKa, species HL           10.18
3  H-LFKLLGKIIHHVGNFVHGFSHVF-OH [Clavanin E]   pKa, species HL           10.77
4      VFQFLGRIIHHVGNFVHGFSHVF [Clavanin B]   pKa, species HL           11.17
